# targetSystem: NPC1-like intracellular cholesterol transporter 1 (Rattus norvegicus)
# assayRemarks: Displacement of [35S](2S,3S,4S,5R,6S)-6-(4-((2S,3R)-3-((S)-3-(4-fluorophenyl)-3-hydroxypropyl)-1-(4-(3-(methylsulfonamido)prop-1-ynyl)phenyl)-4-oxoazetidin-2-yl)phenoxy)-3,4,5-trihydroxytetrahydro-2H-pyran-2-carboxylic acid from rat intestinal brush border membrane NPC1L1 by single tube filtration assay
pIC50: −log10 of the molar value.

smilesStructure	pIC50
C[35S](=O)(=O)NCC#Cc1ccc(N2C(=O)[C@H](CC[C@H](O)c3ccc(F)cc3)[C@H]2c2ccc(O[C@@H]3O[C@H](C(=O)O)[C@@H](O)[C@H](O)[C@H]3O)cc2)cc1	8.40

---

# targetSystem: NPC1-like intracellular cholesterol transporter 1 (Homo sapiens)
# Sequence (Q9UHC9 whole entry): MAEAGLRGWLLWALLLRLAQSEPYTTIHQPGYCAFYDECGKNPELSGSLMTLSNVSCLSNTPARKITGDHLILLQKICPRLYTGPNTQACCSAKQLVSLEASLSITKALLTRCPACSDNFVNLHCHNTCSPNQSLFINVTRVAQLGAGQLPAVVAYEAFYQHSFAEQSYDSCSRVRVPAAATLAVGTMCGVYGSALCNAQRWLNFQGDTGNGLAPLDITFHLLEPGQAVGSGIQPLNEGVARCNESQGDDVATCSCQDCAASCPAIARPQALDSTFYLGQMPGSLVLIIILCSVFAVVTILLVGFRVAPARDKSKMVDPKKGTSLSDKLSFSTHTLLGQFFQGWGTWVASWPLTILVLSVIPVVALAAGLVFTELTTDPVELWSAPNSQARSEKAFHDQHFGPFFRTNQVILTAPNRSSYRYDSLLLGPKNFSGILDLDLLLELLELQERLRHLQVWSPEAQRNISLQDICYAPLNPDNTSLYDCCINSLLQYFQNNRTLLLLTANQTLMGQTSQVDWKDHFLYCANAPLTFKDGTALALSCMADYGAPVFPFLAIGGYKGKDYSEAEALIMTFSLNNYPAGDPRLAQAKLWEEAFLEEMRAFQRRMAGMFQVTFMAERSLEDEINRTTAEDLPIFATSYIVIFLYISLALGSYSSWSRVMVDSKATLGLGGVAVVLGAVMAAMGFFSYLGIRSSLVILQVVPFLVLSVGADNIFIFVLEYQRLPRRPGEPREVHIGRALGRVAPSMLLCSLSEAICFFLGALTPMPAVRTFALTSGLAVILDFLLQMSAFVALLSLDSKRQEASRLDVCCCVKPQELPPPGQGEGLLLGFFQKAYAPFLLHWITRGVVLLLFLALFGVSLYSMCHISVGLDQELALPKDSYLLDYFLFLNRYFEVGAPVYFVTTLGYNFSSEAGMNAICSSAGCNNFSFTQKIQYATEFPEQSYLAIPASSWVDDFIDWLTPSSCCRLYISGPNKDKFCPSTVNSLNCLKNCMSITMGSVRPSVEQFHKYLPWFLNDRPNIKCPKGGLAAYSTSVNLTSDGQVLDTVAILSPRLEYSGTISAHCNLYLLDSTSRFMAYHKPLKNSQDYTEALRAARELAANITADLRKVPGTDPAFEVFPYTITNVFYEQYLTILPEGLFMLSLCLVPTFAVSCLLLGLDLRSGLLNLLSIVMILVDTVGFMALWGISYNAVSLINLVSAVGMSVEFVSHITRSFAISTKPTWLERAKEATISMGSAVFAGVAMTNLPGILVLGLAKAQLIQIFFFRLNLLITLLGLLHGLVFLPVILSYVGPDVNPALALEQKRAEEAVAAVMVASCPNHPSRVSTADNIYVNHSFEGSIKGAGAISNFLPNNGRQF
# assayRemarks: Displacement of [35S](2S,3S,4S,5R,6S)-6-(4-((2S,3R)-3-((S)-3-(4-fluorophenyl)-3-hydroxypropyl)-1-(4-(3-(methylsulfonamido)prop-1-ynyl)phenyl)-4-oxoazetidin-2-yl)phenoxy)-3,4,5-trihydroxytetrahydro-2H-pyran-2-carboxylic acid from recombinant human NPC1L1 expressed in HEK cells by single tube filtration assay
# Assay type: cell-based, HEK293
pIC50: −log10 of the molar value.

smilesStructure	pIC50
C[35S](=O)(=O)NCC#Cc1ccc(N2C(=O)[C@H](CC[C@H](O)c3ccc(F)cc3)[C@H]2c2ccc(O[C@@H]3O[C@H](C(=O)O)[C@@H](O)[C@H](O)[C@H]3O)cc2)cc1	8.40

---

# targetSystem: NPC1-like intracellular cholesterol transporter 1 (Homo sapiens)
# assayRemarks: Displacement of [35S](2S,3S,4S,5R,6S)-6-(4-((2S,3R)-3-((S)-3-(4-fluorophenyl)-3-hydroxypropyl)-1-(4-(3-(methylsulfonamido)prop-1-ynyl)phenyl)-4-oxoazetidin-2-yl)phenoxy)-3,4,5-trihydroxytetrahydro-2H-pyran-2-carboxylic acid from human intestinal brush border membrane NPC1L1 by single tube filtration assay
recordedMetric: IC50 (nM)

smilesStructure	measValue
C[35S](=O)(=O)NCC#Cc1ccc(N2C(=O)[C@H](CC[C@H](O)c3ccc(F)cc3)[C@H]2c2ccc(O[C@@H]3O[C@H](C(=O)O)[C@@H](O)[C@H](O)[C@H]3O)cc2)cc1	4

---

# targetSystem: NPC1-like intracellular cholesterol transporter 1 (Rattus norvegicus, UniProt Q6T3U3)
# Sequence (Q6T3U3 21-1331 limits assumed): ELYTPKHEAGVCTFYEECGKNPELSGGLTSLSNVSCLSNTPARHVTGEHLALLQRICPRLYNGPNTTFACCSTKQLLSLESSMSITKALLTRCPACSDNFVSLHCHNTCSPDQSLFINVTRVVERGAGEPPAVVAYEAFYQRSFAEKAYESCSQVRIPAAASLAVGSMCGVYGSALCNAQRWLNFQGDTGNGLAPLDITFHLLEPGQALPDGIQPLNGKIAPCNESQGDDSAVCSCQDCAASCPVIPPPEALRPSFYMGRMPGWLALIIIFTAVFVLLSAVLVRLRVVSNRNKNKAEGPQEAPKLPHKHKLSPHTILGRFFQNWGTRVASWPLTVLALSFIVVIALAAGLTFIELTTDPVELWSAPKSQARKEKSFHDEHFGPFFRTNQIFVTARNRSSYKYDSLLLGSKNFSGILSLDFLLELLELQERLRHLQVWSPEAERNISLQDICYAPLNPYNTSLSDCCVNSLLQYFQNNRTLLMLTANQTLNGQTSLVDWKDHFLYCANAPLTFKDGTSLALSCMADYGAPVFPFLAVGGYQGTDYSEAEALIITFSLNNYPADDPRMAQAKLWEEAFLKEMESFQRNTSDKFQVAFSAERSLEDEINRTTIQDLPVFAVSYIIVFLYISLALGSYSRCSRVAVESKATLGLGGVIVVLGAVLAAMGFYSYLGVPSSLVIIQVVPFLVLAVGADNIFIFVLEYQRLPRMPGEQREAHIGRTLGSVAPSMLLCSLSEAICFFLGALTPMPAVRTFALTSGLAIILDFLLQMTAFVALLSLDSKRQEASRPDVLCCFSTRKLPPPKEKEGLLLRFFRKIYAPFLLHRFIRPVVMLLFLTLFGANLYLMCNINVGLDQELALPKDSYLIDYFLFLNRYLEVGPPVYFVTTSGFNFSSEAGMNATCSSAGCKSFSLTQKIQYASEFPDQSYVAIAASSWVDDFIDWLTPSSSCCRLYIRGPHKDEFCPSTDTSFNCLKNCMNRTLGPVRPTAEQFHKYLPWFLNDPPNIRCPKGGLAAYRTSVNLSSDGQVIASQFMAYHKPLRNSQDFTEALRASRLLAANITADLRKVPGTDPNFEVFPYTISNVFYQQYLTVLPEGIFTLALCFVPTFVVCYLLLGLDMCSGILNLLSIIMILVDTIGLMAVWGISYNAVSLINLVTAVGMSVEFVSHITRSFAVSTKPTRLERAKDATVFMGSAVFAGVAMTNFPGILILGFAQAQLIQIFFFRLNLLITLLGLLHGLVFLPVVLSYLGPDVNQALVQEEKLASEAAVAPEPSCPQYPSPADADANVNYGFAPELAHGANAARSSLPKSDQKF
# assayRemarks: Displacement of [35S](2S,3S,4S,5R,6S)-6-(4-((2S,3R)-3-((S)-3-(4-fluorophenyl)-3-hydroxypropyl)-1-(4-(3-(methylsulfonamido)prop-1-ynyl)phenyl)-4-oxoazetidin-2-yl)phenoxy)-3,4,5-trihydroxytetrahydro-2H-pyran-2-carboxylic acid from recombinant rat NPC1L1 expressed in HEK cells by single tube filtration assay
# Type: cell-based, HEK293
pIC50: −log10 of the molar value.

smilesStructure	pIC50
C[35S](=O)(=O)NCC#Cc1ccc(N2C(=O)[C@H](CC[C@H](O)c3ccc(F)cc3)[C@H]2c2ccc(O[C@@H]3O[C@H](C(=O)O)[C@@H](O)[C@H](O)[C@H]3O)cc2)cc1	8.40
